Molecular target: Histone deacetylase 2 (Homo sapiens, UniProt Q92769)
Sequence (Q92769 whole entry): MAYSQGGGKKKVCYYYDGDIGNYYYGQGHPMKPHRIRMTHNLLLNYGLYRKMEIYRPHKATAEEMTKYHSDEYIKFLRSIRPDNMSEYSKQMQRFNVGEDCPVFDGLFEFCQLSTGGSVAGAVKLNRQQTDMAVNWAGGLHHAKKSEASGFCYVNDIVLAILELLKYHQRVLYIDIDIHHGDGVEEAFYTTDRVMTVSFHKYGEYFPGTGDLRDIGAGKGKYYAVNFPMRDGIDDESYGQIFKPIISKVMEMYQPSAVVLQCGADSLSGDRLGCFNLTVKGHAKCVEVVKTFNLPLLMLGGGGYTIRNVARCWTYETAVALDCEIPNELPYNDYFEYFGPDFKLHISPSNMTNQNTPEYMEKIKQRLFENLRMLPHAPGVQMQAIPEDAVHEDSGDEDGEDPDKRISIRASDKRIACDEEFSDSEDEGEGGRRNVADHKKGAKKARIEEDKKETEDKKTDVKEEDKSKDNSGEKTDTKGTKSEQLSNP
property: IC50

Task: Param item = `NC(=O)c1ccccc1Nc1cccc(OCCc2ccccc2)c1` ; retrieve measured IC50.
Output: > 30 µM

---

Assign pIC50 to each entry below.
Target: NAD-dependent protein deacetylase sirtuin-2 (Homo sapiens, UniProt Q8IXJ6)
Sequence (Q8IXJ6 whole entry): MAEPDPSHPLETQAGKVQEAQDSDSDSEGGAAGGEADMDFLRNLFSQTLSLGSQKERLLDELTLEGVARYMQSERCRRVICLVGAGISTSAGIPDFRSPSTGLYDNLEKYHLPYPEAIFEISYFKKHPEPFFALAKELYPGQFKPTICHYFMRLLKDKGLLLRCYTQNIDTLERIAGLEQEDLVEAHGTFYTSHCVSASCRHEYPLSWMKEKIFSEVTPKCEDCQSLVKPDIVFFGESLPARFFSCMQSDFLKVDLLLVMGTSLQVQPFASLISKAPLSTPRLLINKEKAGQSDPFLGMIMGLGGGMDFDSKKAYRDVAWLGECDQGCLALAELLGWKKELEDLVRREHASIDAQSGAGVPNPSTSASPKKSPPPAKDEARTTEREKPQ
Assay: Inhibition of human recombinant SIRT2 using Fluor de Lys-SIRT as substrate incubated for 60 mins prior to substrate addition measured after 60 mins by fluorimetric analysis
Give bare numbers, as −log10 of the molar value.

1. NC(=O)c1ccccc1Nc1cccc(OCCc2cccc(Cl)c2)c1
5.70
2. Cc1ccc(Nc2ccccc2C(N)=O)cc1
4.22
3. Cc1cccc(CCOc2cccc(Nc3ccccc3C(N)=O)c2)c1
5.74
4. NC(=O)c1ccccc1Nc1cccc(OCCc2ccc(Cl)cc2)c1
6.08

Provide pIC50 values for the following items, in order.
1. NC(=O)c1ccccc1Nc1ccc(/C=C\c2ccccc2)cc1
2. Cc1ccc(CCOc2cccc(Nc3ccccc3C(N)=O)c2)cc1
3. NC(=O)c1ccccc1Nc1ccc(C(=O)Nc2ccccc2)cc1

Output:
[4.70, 5.80, 4.64]

Provide pIC50 values for the following items, in order.
1. COC(=O)c1ccc(Nc2ccccc2C(N)=O)cc1
2. NC(=O)c1ccccc1Nc1cccc(C(F)(F)F)c1
3. CC(C)COc1cccc(Nc2ccccc2C(N)=O)c1

Output:
[4.08, 4.00, 4.52]

---

Target: NAD-dependent protein deacetylase sirtuin-1 (Homo sapiens, UniProt Q96EB6)
Sequence (Q96EB6 whole entry): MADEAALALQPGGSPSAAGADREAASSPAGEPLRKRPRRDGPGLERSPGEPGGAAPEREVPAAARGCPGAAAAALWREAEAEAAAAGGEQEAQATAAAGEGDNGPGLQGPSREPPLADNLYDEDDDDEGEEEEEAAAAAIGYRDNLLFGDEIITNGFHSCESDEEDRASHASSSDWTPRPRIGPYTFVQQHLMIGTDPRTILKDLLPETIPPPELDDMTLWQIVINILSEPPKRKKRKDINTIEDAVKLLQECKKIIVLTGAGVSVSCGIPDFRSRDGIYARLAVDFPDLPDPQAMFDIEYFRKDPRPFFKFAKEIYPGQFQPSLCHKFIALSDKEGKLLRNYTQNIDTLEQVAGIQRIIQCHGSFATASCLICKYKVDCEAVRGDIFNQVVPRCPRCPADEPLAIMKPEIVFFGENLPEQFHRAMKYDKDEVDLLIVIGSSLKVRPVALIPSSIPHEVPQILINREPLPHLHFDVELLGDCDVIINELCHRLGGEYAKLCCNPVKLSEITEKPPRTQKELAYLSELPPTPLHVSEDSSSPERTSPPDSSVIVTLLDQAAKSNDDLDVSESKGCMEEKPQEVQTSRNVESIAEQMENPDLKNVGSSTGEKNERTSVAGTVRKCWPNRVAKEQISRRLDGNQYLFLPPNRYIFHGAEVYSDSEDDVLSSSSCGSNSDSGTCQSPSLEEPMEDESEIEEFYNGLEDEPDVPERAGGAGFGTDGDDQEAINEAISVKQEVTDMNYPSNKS
Experiment: Inhibition of human recombinant SIRT1 using Fluor de Lys-SIRT as substrate incubated for 60 mins prior to substrate addition measured after 60 mins by fluorimetric analysis
pIC50: −log10 of the molar value.
Assign pIC50 to each entry below.

1) NC(=O)c1ccccc1Nc1ccc(/C=C\c2ccccc2)cc1
< 4.00
2) CN(C)C(=O)c1ccccc1Nc1ccccc1
< 4.00
3) CC(C)C(=O)Nc1ccc(Nc2ccccc2C(N)=O)cc1
< 4.00
4) NC(=O)c1ccccc1Nc1cccc(OCCc2ccc(Cl)cc2)c1
< 4.00
5) NC(=O)c1ccccc1Nc1ccc(Cl)cc1
4.25

Provide pIC50 values for the following items, in order.
1. NC(=O)c1ccccc1Nc1ccc(NC(=O)C2CCCCC2)cc1
2. NC(=O)c1ccccc1Nc1ccc(/C=C/c2ccccc2)cc1
3. CNC(=O)c1ccccc1Nc1ccccc1
4. NC(=O)c1ccccc1Nc1cccc(C(=O)O)c1

Output:
< 4.00
< 4.00
< 4.00
< 4.00

---

Assign pIC50 to each entry below.
Target: UniProtKB Q8IXJ6
Sequence (Q8IXJ6 whole entry): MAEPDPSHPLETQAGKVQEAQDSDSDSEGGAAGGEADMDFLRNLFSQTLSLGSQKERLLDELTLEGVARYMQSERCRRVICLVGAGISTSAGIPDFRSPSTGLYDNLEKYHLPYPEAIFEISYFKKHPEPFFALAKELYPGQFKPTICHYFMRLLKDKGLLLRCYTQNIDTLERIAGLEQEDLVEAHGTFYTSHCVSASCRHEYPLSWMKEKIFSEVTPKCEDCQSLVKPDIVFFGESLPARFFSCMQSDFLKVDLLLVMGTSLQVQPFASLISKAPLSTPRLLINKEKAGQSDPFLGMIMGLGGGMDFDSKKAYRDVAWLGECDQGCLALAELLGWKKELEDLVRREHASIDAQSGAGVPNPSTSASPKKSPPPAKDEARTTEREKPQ
Test: Inhibition of human recombinant SIRT2 using Fluor de Lys-SIRT as substrate incubated for 60 mins prior to substrate addition measured after 60 mins by fluorimetric analysis
pIC50: −log10 of the molar value.

Worked examples, 5 molecules total:
1) CN(C)C(=O)c1ccccc1Nc1ccccc1
< 4.00
2) CC(C)(C)c1ccc(Nc2ccccc2C(N)=O)cc1
< 4.00
3) CNC(=O)c1ccccc1Nc1ccccc1
< 4.00
4) Cc1ccccc1CCOc1cccc(Nc2ccccc2C(N)=O)c1
5.74
5) NC(=O)c1ccccc1Nc1cccc(OCCc2ccc(F)cc2)c1
5.57

Task: Param item = `NC(=O)c1ccccc1Nc1ccc(C(=O)O)cc1` ; retrieve measured pIC50.
Output: < 4.00

---

Target: NAD-dependent protein deacetylase sirtuin-1 (Homo sapiens)
Test: Inhibition of human recombinant SIRT1 using Fluor de Lys-SIRT as substrate incubated for 60 mins prior to substrate addition measured after 60 mins by fluorimetric analysis
pIC50: −log10 of the molar value.
property: pIC50

Worked examples, 2 compounds total:
1. NC(=O)c1ccccc1Nc1ccc(C(=O)Nc2ccccc2)cc1
< 4.00
2. NC(=O)c1ccccc1Nc1ccc2ccccc2c1
< 4.00

Task: Param item = `NC(=O)c1ccccc1Nc1cccc(OCCc2cccc(Cl)c2)c1` ; retrieve measured pIC50.
Output: < 4.00
